Molecular target: T1, HpDprA(5-217)Y11E (Helicobacter pylori 26695, UniProt O25100 5-217, Y11E)
T1 sequence: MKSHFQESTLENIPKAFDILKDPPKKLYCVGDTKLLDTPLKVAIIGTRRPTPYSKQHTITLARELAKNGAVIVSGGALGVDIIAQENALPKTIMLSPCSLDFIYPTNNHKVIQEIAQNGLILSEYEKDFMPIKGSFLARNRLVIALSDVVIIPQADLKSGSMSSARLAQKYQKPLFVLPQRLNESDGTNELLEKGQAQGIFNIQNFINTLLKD
Assay: MST

BINDER | UNIT INFO | Kd
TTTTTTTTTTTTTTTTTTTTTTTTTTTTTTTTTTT (ssDNA) [dT35] | nM | 55.9
